Recorded pIC50 values for a group of compounds are listed next.
test.system: KRAS WT (Homo sapiens, UniProt P01116+P62937)
Sequence (P01116 1-169 isoform P01116-2 limits assumed): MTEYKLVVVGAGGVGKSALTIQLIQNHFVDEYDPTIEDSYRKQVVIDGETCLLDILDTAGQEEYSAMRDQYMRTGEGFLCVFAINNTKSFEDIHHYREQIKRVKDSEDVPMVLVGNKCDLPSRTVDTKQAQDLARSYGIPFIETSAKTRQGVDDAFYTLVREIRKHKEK
Sequence (P62937 whole entry): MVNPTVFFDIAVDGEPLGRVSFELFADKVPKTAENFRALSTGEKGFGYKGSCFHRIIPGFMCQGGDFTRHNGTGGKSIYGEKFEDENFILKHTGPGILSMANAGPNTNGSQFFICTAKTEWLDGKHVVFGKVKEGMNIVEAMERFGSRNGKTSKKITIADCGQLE
assay.text: Disruption of BRAF RBD interaction with Ras (FRET / MOA assay, with Cyclophilin A)
Assay type: biochemical
details: KRAS WT; read-out: KRAS WT FRET data IC50
From the text: This protocol may also be executed substituting other Ras proteins or nucleotides. The purpose of this biochemical assay was to measure the ability of test compounds to facilitate ternary complex formation between a nucleotide-loaded K-Ras isoform and Cyclophilin A; the resulting ternary complex disrupts binding to a BRAF^RBD construct, inhibiting K-Ras signaling through a RAF effector. Data is reported as IC50 values. […]
pIC50: −log10 of the molar value.

CCn1c(-c2cccnc2[C@H](C)OC)c2c3cc(ccc31)-c1cccc(c1)C[C@H](NC(=O)[C@H](C(C)C)N1CC[C@]3(CCN(C(=O)C#C[C@@H]4COCCN4C4COC4)C3)C1=O)C(=O)N1CCC[C@H](N1)C(=O)OCC(C)(C)C2 ... < 5.00

Please look at the following compound next.
Which pIC50 is reported with KRAS WT (Homo sapiens, UniProt P01116+P62937) for this entry: CCn1c(-c2cccnc2[C@H](C)OC)c2c3cc(ccc31)-c1csc(n1)C[C@H](NC(=O)[C@H](C(C)C)N(C)C(=O)N1CCN(C)CC1)C(=O)N1CCC[C@H](N1)C(=O)OCC(C)(C)C2 ?
6.00 to 7.00
